- Test system: SW-620 colon
- Experimental details: NCI tumour cell line growth inhibition, 48 h
Measured metric: GI50

Tell me GI50 reported for CC1c2ccccc2CCN1c1ccc(CO)c(Cl)c1 (stereo not given)
0.203 µM

Tell me GI50 reported for COc1cc2ncc3c(nc4sccn43)c2cc1OC
41.9 µM

Tell me GI50 reported for O=C(Nc1ccccc1OC(=O)c1ccccc1)c1ccccc1
4.25 µM

Tell me GI50 reported for C=CCc1cc(Nc2c3ccc(Cl)cc3nc3ccc(OC)cc23)cc(CN(CC)CC)c1O
1.97 µM

Tell me GI50 reported for CSc1ccc(C2=NN(C(C)=O)C(c3ccc(-c4ccc(Cl)cc4)o3)C2)cc1 (stereo not given)
77.7 µM

###

- Tested on: T-47D breast
- Experimental details: NCI tumour cell line growth inhibition, 48 h
Each entry below lists one item and its recorded GI50 value.

Past entries and their recorded results:
                                   molecule  assay_system  value_measured
0  N/C(=N\OC(=O)c1ccccc1)C(Cc1ccccc1)C(=O)NOC(=O)c1ccccc1 (stereo not drawn)  T-47D breast         3.18 µM
1  COc1cc(-c2nn(-c3cccc(NC(=O)CCN4CCN(Cc5ccccc5)CC4)c3)cc2-c2ccncc2)ccc1Cl  T-47D breast         2.76 µM

Tell me GI50 reported for Oc1cccc2c1NCCC2
0.581 µM

###

Each entry below lists one item and its recorded TGI value.
- Tested on: HOP-62 NSCLC
- Experimental details: NCI tumour cell line growth inhibition, 48 h

Past entries and their recorded results:
In [3]: df
Out[3]:
                                   compound  assay_system  value_measured
0  CCN(CC)c1nnc(CCCCCCCCc2nnc(N(CC)CC)o2)o1  HOP-62 NSCLC        > 100 µM
1  CCOC(=O)C1Nc2ccccc2[C@H]2OCC[C@@H]12 (some centres undefined)  HOP-62 NSCLC        > 100 µM
2  COc1cc(-c2nn(-c3cccc(NC(=O)CCN4CCN(Cc5ccccc5)CC4)c3)cc2-c2ccncc2)ccc1Cl  HOP-62 NSCLC         12.4 µM
3  Cc1cc(NS(=O)(=O)c2ccc(NC(=O)c3cccc4c(Nc5ccc(S(N)(=O)=O)cc5)c5ccccc5nc34)cc2)no1  HOP-62 NSCLC        > 100 µM
4  COc1cc(Nc2nc3cc(C(F)(F)F)ccc3n3cccc23)cc(OC)c1OC  HOP-62 NSCLC        > 100 µM

Tell me TGI reported for NC1=NC(=O)C(CC(=O)Nc2ccc(Cl)cc2Cl)S1 (centres undefined)
> 100 µM

Tell me TGI reported for CN(CCCNC(=O)c1cc(-c2ccccc2)nc2ccccc12)CCCNC(=O)c1cc(-c2ccccc2)nc2ccccc12
4.13 µM

Tell me TGI reported for Cc1cc(C)c(C2CNCc3cc4c(cc32)CNCC4c2c(C)cc(C)cc2C)c(C)c1 (centres undefined)
22.3 µg/mL

Tell me TGI reported for CNNC(=NS(=O)(=O)c1cc(C#N)c(NNC)cc1S)NNC
> 10 µM

###

- Test system: OVCAR-4 ovarian
- Experimental details: NCI tumour cell line growth inhibition, 48 h
Measured metric: GI50

Past entries and their recorded results:
Compound	Assay system	GI50
COc1cc(-c2nn(-c3cccc(NC(=O)CCN4CCN(Cc5ccccc5)CC4)c3)cc2-c2ccncc2)ccc1Cl	OVCAR-4 ovarian	1800 nM
COc1cc(/C=C/c2ccc3c(Br)cc(Br)c(O)c3n2)ccc1O	OVCAR-4 ovarian	2180 nM
CC1C=CC(OC(=O)C(C)(O)CCC(O)(C(=O)OC2CC(O)C(C(C)C)CC2(C)O)C(C)C)(C(C)C)CC1 (centres undefined)	OVCAR-4 ovarian	746 nM
N/C(=N\OC(=O)c1ccccc1)C(Cc1ccccc1)C(=O)NOC(=O)c1ccccc1 (centres undefined)	OVCAR-4 ovarian	4380 nM
C[C@@H]1O[C@@H](O[C@@H]2[C@@H](O)[C@H](OCCc3ccc(O)c(O)c3)O[C@H](CO)[C@H]2OC(=O)/C=C/c2ccc(O)c(O)c2)[C@H](O)[C@H](OC2OC[C@](O)(CO)[C@H]2O)[C@H]1O (some centres undefined)	OVCAR-4 ovarian	> 100000 nM

Tell me GI50 reported for O=C(NNS(=O)(=O)c1ccc(Cl)cc1Cl)c1cccnc1Nc1ccc(Cl)cc1
28700 nM

Tell me GI50 reported for Cc1[nH]c(-c2cc(N)ccc2Cl)c2c1C(=O)CCCC2
2950 nM

Tell me GI50 reported for COc1ccc(Nc2ccc([N+](=O)[O-])cc2[N+](=O)[O-])cc1CN(CCCl)CCCl
2700 nM

Tell me GI50 reported for COc1ccc(/C=C(\C)[N+](=O)[O-])cc1OC
1970 nM

Data origin, for the record: PubChem BioAssay (NCI)
